// provenance: ChEMBL document CHEMBL5131442

# measuredOn: Nuclear factor erythroid 2-related factor 2 (Homo sapiens, UniProt Q16236)
# Sequence (Q16236 whole entry): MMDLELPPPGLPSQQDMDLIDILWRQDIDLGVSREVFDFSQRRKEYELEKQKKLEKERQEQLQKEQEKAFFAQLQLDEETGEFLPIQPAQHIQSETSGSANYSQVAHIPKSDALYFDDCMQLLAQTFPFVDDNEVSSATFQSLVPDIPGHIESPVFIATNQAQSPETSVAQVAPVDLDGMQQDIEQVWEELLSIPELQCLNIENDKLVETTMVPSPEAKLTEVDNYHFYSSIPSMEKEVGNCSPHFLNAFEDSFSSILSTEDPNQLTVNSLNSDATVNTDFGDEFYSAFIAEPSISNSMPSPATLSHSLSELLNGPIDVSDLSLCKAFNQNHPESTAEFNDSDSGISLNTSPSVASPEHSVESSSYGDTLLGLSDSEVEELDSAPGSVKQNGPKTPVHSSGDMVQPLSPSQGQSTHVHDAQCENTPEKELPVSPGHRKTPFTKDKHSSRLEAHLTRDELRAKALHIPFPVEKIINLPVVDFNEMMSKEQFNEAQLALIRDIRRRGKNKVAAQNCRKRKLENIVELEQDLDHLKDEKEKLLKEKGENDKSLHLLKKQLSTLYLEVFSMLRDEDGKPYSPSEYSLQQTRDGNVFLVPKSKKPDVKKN
# experimentalDetails: Activation of Nrf2 in HEK293T cells
For each record, write down the corresponding EC50.
State the value with its unit after it.

>  <smilesRepresentation>
CC1(C)CCc2c(c(Br)cc3cc(-c4ccccc4)c(=O)oc23)O1

>  <measuredOn>
Nuclear factor erythroid 2-related factor 2 (Homo sapiens, UniProt Q16236)

>  <result>
2.9 µM

$$$$

Here is the next item to consider.
query: Any idea what its EC50 is? The compound is "CC1(C)CCc2c(c(Br)cc3cc(-c4ccc(C(F)(F)F)cc4)c(=O)oc23)O1"
result: 4.55 µM

---

For each record, write down the corresponding fold change (FC).
# measuredOn: Nuclear factor erythroid 2-related factor 2 (Homo sapiens) (UniProt Q16236)
# Sequence (Q16236 whole entry): as above
# experimentalDetails: Agonist activity at Nrf2 (unknown origin) at 20 uM by dual-luciferase reporter gene assay
# runParameters: filed as agonist
Numbers only.

Below are worked cases with known answers.
>  <smilesRepresentation>
CC(C)=CCc1c(OC(=O)NCCc2c(C)[nH]c3ccccc23)ccc2ccc(=O)oc12

>  <measuredOn>
Nuclear factor erythroid 2-related factor 2 (Homo sapiens) (UniProt Q16236)

>  <fold change (FC)>
0.61

$$$$
>  <smilesRepresentation>
CC1(C)CCc2c(c(Br)cc3cc(-c4cccc(C(F)(F)F)c4)c(=O)oc23)O1

>  <measuredOn>
Nuclear factor erythroid 2-related factor 2 (Homo sapiens) (UniProt Q16236)

>  <fold change (FC)>
1.52

$$$$
>  <smilesRepresentation>
Cc1ccc(-c2cc3cc(Br)c4c(c3oc2=O)CCC(C)(C)O4)cc1

>  <measuredOn>
Nuclear factor erythroid 2-related factor 2 (Homo sapiens) (UniProt Q16236)

>  <fold change (FC)>
1.61

$$$$
>  <smilesRepresentation>
CC1(C)CCc2c(c(Br)cc3cc(-c4ccc(F)cc4)c(=O)oc23)O1

>  <measuredOn>
Nuclear factor erythroid 2-related factor 2 (Homo sapiens) (UniProt Q16236)

>  <fold change (FC)>
1.26

$$$$
>  <smilesRepresentation>
COc1ccc2[nH]c(C)c(CC(=O)Oc3ccc4ccc(=O)oc4c3CC=C(C)C)c2c1

>  <measuredOn>
Nuclear factor erythroid 2-related factor 2 (Homo sapiens) (UniProt Q16236)

>  <fold change (FC)>
1.56

$$$$

Hey, quick one: what's fold change (FC) for each of these?
1. CC1(C)CCc2c(c(Br)cc3cc(-c4ccc(C(F)(F)F)cc4)c(=O)oc23)O1
2. CC(C)=CCc1c(OC(=O)NCCc2c[nH]c3ccc(Cl)cc23)ccc2ccc(=O)oc12

result:
1. 2.04
2. 0.79

---

# measuredOn: Nuclear factor erythroid 2-related factor 2 (Homo sapiens) (UniProt Q16236)
# experimentalDetails: Agonist activity at Nrf2 (unknown origin) at 20 uM by dual-luciferase reporter gene assay
# runParameters: filed as agonist
Returns Met if the recorded fold change (FC) is greater than or equal to 1, and Not met otherwise.

query: Item "CC(C)=CCc1c(OC(=O)Cc2c[nH]c3ccc(Br)cc23)ccc2ccc(=O)oc12" with fold change (FC) of 1 or above?
result: Met

query: Item "CC(C)=CCc1c(OC(=O)Cc2c(C)[nH]c3ccccc23)ccc2ccc(=O)oc12" with fold change (FC) of 1 or above?
result: Met

query: Item "CC(C)=CCc1c(OC(=O)NCCc2c[nH]c3ccccc23)ccc2ccc(=O)oc12" with fold change (FC) of 1 or above?
result: Not met

query: Item "CC1(C)CCc2c(c(Br)cc3cc(-c4ccccc4)c(=O)oc23)O1" with fold change (FC) of 1 or above?
result: Met
